meta.source: PubChem BioAssay (NCATS)

tested on: NIH3T3; experiment: Cytotoxic Profiling of Annotated Libraries Using Quantitative High-Throughput Screening (AID 1296008); settings: Five cell lines viability, CellTiter-Glo ATP luminescence, 48-72 h; stronger effect = lower value; also: % is scaled to controls: 0 for no effect and ±100 for the full control effect; nearly all actives have a fitted effect of over 60% in size
Results filed as inconclusive are left out. The source made the active and inactive calls. Calls follow the shape of the dose curve; as a rule, active = well fitted inhibition curve with a large enough effect; inconclusive = small, poorly fitted or top-dose-only effect; inactive = flat fitted curve, though single readings scatter.
READOUT TYPE: max response

Known max response results, listed for orientation:
# MOLECULE, max response
records = [
    ("COc1ccc(C(=O)Nc2c(Cl)cncc2Cl)cc1OC1CCCC1", "-4.74% (inactive)"),
    ("COc1ccc(CCO[C@@H]2O[C@H](CO[C@H]3OC[C@](O)(CO)[C@H]3O)[C@@H](OC(=O)/C=C/c3ccc(O)c(O)c3)[C@H](O[C@@H]3O[C@@H](C)[C@H](O)[C@@H](O)[C@H]3O)[C@H]2O)cc1OC", "-1.58% (inactive)"),
    ("CCCn1ncc(CN2CCCC(C(=O)c3cccc(OC(C)C)c3)C2)c1C (stereo unspecified)", "-15.4% (inactive)"),
]

Entry O=C(Nc1cnc(Cl)nc1)c1ccc(F)c(F)c1 — recorded max response = 1.41% (inactive)

Entry COC(=O)c1sccc1S(=O)(=O)Nc1ccc(Nc2ccccc2)cc1OC — recorded max response = 1.31% (inactive)

Entry CC(C)c1ccc(-c2cc(=O)c3ccccc3o2)cc1 — recorded max response = -24.9% (inactive)

###

target: Cytochrome P450 2D6 (Homo sapiens); assay: Cytochrome P450 family 2 subfamily D member 6 (CYP2D6) small molecule antagonists: luciferase biochemical (cell-free) qHTS assay (AID 1645840); conditions: P450-Glo CYP2D6 enzyme, luciferin luminescence, 1 h; series mostly up to 57.4 µM; also: nearly all actives have a fitted effect of over 55% in size; also: potency is read from the fitted curve at half-maximal effect
Inconclusive results are not listed. Calls of active or inactive are those of the source. Calls follow the shape of the dose curve; as a rule, active = well fitted inhibition curve with a large enough effect in the repeat runs; inconclusive = weak or mixed curves; inactive = flat fitted curve, though single readings scatter.
READOUT TYPE: Potency

# COMPOUND, STUDY SYSTEM, Potency
records = [
    ("CNc1cc2[nH]c(=O)n(-c3ccc(NC(=O)NS(=O)(=O)c4ccc(Cl)s4)cc3)c(=O)c2cc1F", "Cytochrome P450 2D6 (Homo sapiens)", "inactive"),
    ("O=S1(=O)CCN(Cc2cc(NCC3CCOCC3)c3[nH]c(-c4ccccc4)cc3c2)CC1", "Cytochrome P450 2D6 (Homo sapiens)", "12 µM (active)"),
    ("CCOc1ccc(CCNC(=O)c2cc3sc(Cl)cc3n2C)cc1OCC", "Cytochrome P450 2D6 (Homo sapiens)", "inactive"),
    ("CCCCC(=O)O", "Cytochrome P450 2D6 (Homo sapiens)", "inactive"),
    ("Cc1noc(C)c1-c1cc(O)cc(C(O)c2ccccc2)c1 (stereo not given)", "Cytochrome P450 2D6 (Homo sapiens)", "16.9 µM (active)"),
    ("O=C(NC1CCN(CCCCC2(C(=O)NCC(F)(F)F)c3ccccc3-c3ccccc32)CC1)c1ccccc1-c1ccc(C(F)(F)F)cc1", "Cytochrome P450 2D6 (Homo sapiens)", "1.07 µM (active)"),
    ("CN1CCC(NC(=O)c2cc(-c3c(O)cc(O)cc3Oc3ccc([N+](=O)[O-])cc3)on2)CC1", "Cytochrome P450 2D6 (Homo sapiens)", "inactive"),
    ("COc1ccc(-c2ccc3c(N4CCOCC4C)nc(N4CCOCC4C)nc3n2)cc1CO (stereo not given)", "Cytochrome P450 2D6 (Homo sapiens)", "inactive"),
    ("CN(C)CCOc1cc(NS(=O)(=O)c2c(Cl)cc(C(F)(F)F)cc2Cl)ccc1Cl", "Cytochrome P450 2D6 (Homo sapiens)", "16.9 µM (active)"),
]

Attention now shifts to the item below.
Entry COc1cc2c(cc1OCCCN1CCCC1)N=C(N)C21CCC1 — recorded Potency = 23.9 µM (active)

###

system: OV90; assay: Primary qHTS to identify gynecologic anti-cancer compounds using libraries of approved drugs and bioactive compounds (AID 1345084); settings: Gynecologic cancer cell panel viability, ATPlite luminescence, 48 h; series mostly up to 57.5 µM; also: % is scaled to controls: 0 for no effect and ±100 for the full control effect; nearly all actives have a fitted effect of over 55% in size
Results filed as inconclusive are left out. Activity calls are given as the source filed them. Calls come from the whole dose curve; as a rule, active = well fitted cell-killing curve with a large enough effect; inconclusive = small, poorly fitted or top-dose-only effect, or effect the other way; inactive = flat fitted curve, though single readings scatter.
Hi! Could you answer with just one of these? active, inactive

Completed entries (count: 3):
# MOLECULE, CATEGORY LABEL
data = [
    ("C/C=C/[C@@H]1C=C[C@@H]2C[C@H](C)CC[C@H]2[C@]1(C)/C(O)=C1/C(=O)[C@@H](CO)N(C)C1=O", "inactive"),
    ("CCc1cnc(N2CCC(c3nc(COc4ccc(-n5cnnn5)cc4)cs3)CC2)nc1", "inactive"),
    ("CN1CCc2cc3c(cc2C(=O)Cc2cc4c(cc2C1)OCO4)OCO3", "inactive"),
]

Called result for Cc1ccc(OC[C@H](O)[C@H](C)NC(C)C)c2c1CCC2
inactive

Called result for CCCCCc1ccc(/C=C/C(=O)Nc2cc(Cl)ccc2C(=O)O)cc1
inactive

Called result for Cn1cc(-c2ccc3c(c2)CCN3C(=O)Cc2cccc(C(F)(F)F)c2)c2c(N)ncnc21
inactive

Called result for Cc1cc2c(F)c(Oc3ncnn4cc(OCC(C)OC(=O)C(C)N)c(C)c34)ccc2[nH]1 (configuration not stated)
inactive

Called result for COc1ccccc1N1CCN(c2ncnc3n[nH]c(Br)c23)CC1
inactive

Called result for CC1CC(=O)C2=C(C1)C1OC1C1(O)C2C(=O)c2cccc(O)c2C1O (configuration not stated)
inactive

Called result for CC(=O)OC1[C@H]2[C@@H](C[C@@H](C)[C@@H]3C=CC(=O)[C@@]13C)OC(=O)[C@@H]2C (some centres not stated)
inactive

###

test system: JEG-3; experiment: Primary qHTS to identify gynecologic anti-cancer compounds using libraries of approved drugs and bioactive compounds (AID 1345084); details: Gynecologic cancer cell panel viability, ATPlite luminescence, 48 h; series mostly up to 57.5 µM; also: % is scaled to controls: 0 for no effect and ±100 for the full control effect; nearly all actives have a fitted effect of over 55% in size
Records with an inconclusive call do not appear. Activity calls are given as the source filed them. The call rests on the fitted dose curve; in most records, active means well fitted cell-killing curve with a large enough effect; inconclusive means small, poorly fitted or top-dose-only effect, or effect the other way; inactive means flat fitted curve, though single readings scatter.
READOUT TYPE: activity change, negative = cytotoxicity

# COMPOUND, STUDY SYSTEM, activity change, negative = cytotoxicity
records = [
    ("CC(F)(F)CN1CCOc2c(nn(-c3ccccc3Cl)c2-c2ccc(Cl)cc2)C1=O", "JEG-3", "inactive"),
    ("O=C(Nc1ncc([N+](=O)[O-])s1)c1ccccc1O", "JEG-3", "inactive"),
    ("CC(=O)O[C@@H]1CC2C(C)(C)C(=O)C=C[C@]2(C)C2CC[C@@]3(C)[C@H](c4ccoc4)OC(=O)[C@H]4O[C@]43[C@@]21C (stereo not given in full)", "JEG-3", "inactive"),
    ("CC(C)=CCc1cc2c(cc1O)OC[C@H]1c3ccc(O)cc3O[C@@H]21", "JEG-3", "inactive"),
]

Attention now shifts to the item below.
Form field activity change, negative = cytotoxicity for item C=CCCN1CCC2(CC1)CN(C(=O)c1c(F)cccc1F)c1ccc(Cl)cc12 on JEG-3: inactive

###

system: KB-3-1; assay: Cytotoxic Profiling of Annotated Libraries Using Quantitative High-Throughput Screening (AID 1296008); settings: Five cell lines viability, CellTiter-Glo ATP luminescence, 48-72 h; stronger effect = lower value; also: % is scaled to controls: 0 for no effect and ±100 for the full control effect; nearly all actives have a fitted effect of over 60% in size
Results filed as inconclusive are left out.
READOUT TYPE: max response (%)
Quick note: give the figure in %, leave out the unit.

Known max response results, listed for orientation:
# MOLECULE, STUDY SYSTEM, max response [%]
measured = [
    ("O=C(N[C@H]1CCN(C(=O)c2cc(C(F)(F)F)cc(C(F)(F)F)c2)[C@H](Cc2ccc(Cl)cc2)C1)c1ccnc2ccccc12", "KB-3-1", -7.03),
    ("OC1(CN2CCC(COc3noc4cccc(O[C@@H]5CCOC5)c34)CC2)CCOCC1", "KB-3-1", 2.03),
    ("CC1=CC2/C=C(\\C)CCC(O)C(=O)C(O)CC(=O)C23C(=O)NC(CC(C)C)C3C1C (stereo not drawn)", "KB-3-1", 2.51),
    ("Cc1c(C(=O)NCc2cccnc2)nn(-c2ccc(Cl)cc2Cl)c1-c1ccc(Cl)cc1", "KB-3-1", -24),
    ("CC(=O)O[C@@H]1CC[C@@]2(C)[C@H](CC[C@@H]3[C@@H]2C[C@H](OC(C)=O)[C@]2(C)[C@@H](C(C)=O)CC[C@@H]32)C1", "KB-3-1", -28.9),
]

Form field max response for item CC(C)(CNC(=O)c1cccc(-c2noc(C(F)(F)F)n2)c1)c1coc(-c2ccccc2)n1 on KB-3-1: -6.73

Form field max response for item CC(=O)S[C@@H]1CC2=CC(=O)CC[C@]2(C)[C@H]2CC[C@@]3(C)[C@@H](CC[C@@]34CCC(=O)O4)[C@H]12 on KB-3-1: -24

Form field max response for item COC(=O)c1ccnc(-c2cc(C(=O)Nc3ccc(C4(N)CC4)cc3)ccn2)c1 on KB-3-1: -6.68

###

tested on: Es-2; experiment: Primary qHTS to identify gynecologic anti-cancer compounds using libraries of approved drugs and bioactive compounds (AID 1345084); conditions: Gynecologic cancer cell panel viability, ATPlite luminescence, 48 h; series mostly up to 57.5 µM; also: % is scaled to controls: 0 for no effect and ±100 for the full control effect; nearly all actives have a fitted effect of over 55% in size
Records with an inconclusive call do not appear. The source made the active and inactive calls. Calls follow the shape of the dose curve; as a rule, active = well fitted cell-killing curve with a large enough effect; inconclusive = small, poorly fitted or top-dose-only effect, or effect the other way; inactive = flat fitted curve, though single readings scatter.
READOUT TYPE: outcome

# MOLECULE, OBSERVED
data = [
    ("CCNC1(C(N)=O)CCN(c2ncnc3c2nc(-c2ccccc2Cl)n3-c2ccc(Cl)cc2)CC1", "inactive"),
    ("C=C(C)[C@@H]1CC[C@]2(C(=O)O)CC[C@]3(C(=O)O)[C@H](CCC4[C@@]5(C)CCC(=O)C(C)(C)C5CC[C@]43C)C12 (some centres undefined)", "inactive"),
    ("CCCn1cc2c(nc(NC(=O)Nc3ccc(OC)cc3)n3nc(-c4ccco4)nc23)n1", "inactive"),
    ("CCCN1CCC=C(c2cc(-c3ccc(C)cc3)no2)C1", "inactive"),
    ("CN1CCc2cc3c(cc2C(=O)Cc2cc4c(cc2C1)OCO4)OCO3", "inactive"),
    ("O=C(OC1CN2CCC1CC2)N1CCc2ccccc2C1c1ccccc1 (centres undefined)", "inactive"),
]

Entry COCCNCc1ccc(-c2cc3nccc(Oc4ccc(NC(=O)C5(C(=O)Nc6ccc(F)cc6)CC5)cc4F)c3s2)nc1 — recorded outcome = inactive

Entry CCOC(=O)N1c2ccc(C(F)(F)F)cc2C(N(Cc2cc(C(F)(F)F)cc(C(F)(F)F)c2)C(=O)OC)CC1CC (centres undefined) — recorded outcome = inactive

Entry NC(=O)c1cnc(N[C@@H]2CCCC[C@H]2N)nc1Nc1cccc(-n2nccn2)c1 — recorded outcome = inactive
